B1: TPR t1 (parent)
chain: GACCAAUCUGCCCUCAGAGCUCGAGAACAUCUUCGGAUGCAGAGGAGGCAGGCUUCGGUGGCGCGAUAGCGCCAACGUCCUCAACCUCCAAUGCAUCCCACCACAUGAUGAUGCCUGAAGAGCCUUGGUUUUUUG

# Variants of: B1
# protocol_details: polymerase ribozyme fitness, log enrichment relative to wild type (log ratio); higher = more active; in vitro selection for triplet polymerase activity
measurement_name: polymerase ribozyme fitness (log ratio)
Answer with a bare number; do not write a unit.

polymerase ribozyme fitness (log ratio) for GACCAAUCUGCCGUCAAAGCUCGAGAACAUCUUCGGAUGCAGAGGAGGCAGGCUGCGGUGGCGCGAUAGCGCCAACGUCCUCAACCUCCAAUGCAUCCCACCACAUGAUGAUGCCUGAAGAGCCUUGGUUUUUUG is -5.5

polymerase ribozyme fitness (log ratio) for GACCAAUCUGCCCUCAGAGCUCGAGAACAUCUUCGGAUGCAGAGUAGGCAGGCUUCCGUGGCGCGAUAUCGCCAACGUCCUCAACCUCCAAUGCAUCCCACCACAUGAUAAUGCCUGAAGAGCCAUGGUUUUUUG is -0.972

polymerase ribozyme fitness (log ratio) for GACCAAUCUGCCCUCAGAGCUGGAGAACAUCUUCGGAUGCAGAGGAGGCAGGCUUCGGUGGCGCGAUAACGCCAACGUCCUCAACCUCCAAUGCAUCCCACCACAUGAUGAUGCCUGAAGAGCCUUGGUUUUUUG is -3.64

polymerase ribozyme fitness (log ratio) for GACCAAUCUGCCCUCAGCGCUCGAGAACAUCUUCGGAUGCAGAGGAGGCAGGCUUCGGUGGCGCGAUAGCGGCAACGUCCUCAACCUCCAAUGCAUCCCACCACAUGAUGAUGCCUGAAGAGCAUUGGAUUUUUG is -3.56

polymerase ribozyme fitness (log ratio) for GACCAAUCUGCCCUCAGAGCUCGAGAACAUCUUCGGAUGCAGAGGAGGCAGGCUUCGGUGGCGCGAUAGAUCCAGCGUCCUCAACCUCCAAUGCAUCCAACCACAUGAUGAUGCCUGAAGUGCCUUUGUUUUUUG is -4.8

polymerase ribozyme fitness (log ratio) for GACCAAUCUGCCCUCAGAGCUCGAGAACAUCUUCGGAUGUAGAGGAGUCAGGCUUCGGUGGCGCGAUAGCGCCAACGUCCUAAACCUACAAUGCAUCCCACCACAUGAUGAUGCCUGAAGAGCCUUGGUUUUUUG is -3.31

polymerase ribozyme fitness (log ratio) for GACCAAUCUGCCCUCAGAGCUCGAGAACAUCUUCGGAUCCAGAGGAGGCAGGAGUCGGUGGCGCGAUAGCGCCAACGUCCUCAACCUCCAAUGCAUCCCACCACAUGAUGAUGCCUGAAUAGCCUUGGUUUUUUG is 0.139

polymerase ribozyme fitness (log ratio) for GACCAAUCUGCCCUCAGAGCUCGAGGACAUCUUCGGAUGCAGAGGAGACAGGCUUCGGUGGCUCGAUAGCGCCAACGUCCUCAACCUCCAAUGCAUCCCAGCACAUGAUGAUGCCUGAAGAGCCUUGGUUUUUUG is -4.73

polymerase ribozyme fitness (log ratio) for GUCCAAUCUGCCCUCAGAGCUCGAGAACAUCUUCGGAUGCAGAGGAGGCAGGCUUCGGUGGCGCGAUAGCGCCAACGUCCUCGACCUCCAAUGCAUCCCACCACAUGAUGAUGCCUGAAGAGCCUUGGUUUUUUG is -3.47

polymerase ribozyme fitness (log ratio) for GACCAAUCUGCCCUCAGAGCUCGAGAACAUCUUCGGAUGCAGAGGAGGCAGGCUUUGGGGGCGCGAUAGCGCCAACGUCCUCAACCUCCAAUGCAUCCCACCACAUGAUGAUGGCUGAAGAGCCUUGGUUUUUUG is -1.96

polymerase ribozyme fitness (log ratio) for GACCAAUCUGCCCUCAGAGCUCGAGAACAUCUUCGGAUGCAGAGGAGGCAGGCUUCGGUGGCGCGAUAGCGCCAACGUCCUCAACCUCCAUUGCAACCCACCACAUGAUGAUGCCUGAAGAGCCUUGGUUUUUUG is -2.42

polymerase ribozyme fitness (log ratio) for GACCAAUCUGCCCUCAGAGCUCGAGAACAUCUUCGGAUGCAGAGGAGGCAGGUUUCGGUGGCGCGAUAGCGUCAACGUCCUGAACCUCCAAUGCAUCCCACCACAUGAUGAUGCCUGAAGAGGCUUGGUUUUUUG is -0.45

polymerase ribozyme fitness (log ratio) for GACCAAUCUGCCCUCAGAGCUCGAGAACAUCUUCGGAUGCAGAGGAGGCAGGCUUCGGUGGCGCGAUAGAGCCAACGUCCUCAACCUCCAAUACAUCCCACCACAUGAUGAUGCCCGAAGAGACUUGGUUUUUUG is -5.19

polymerase ribozyme fitness (log ratio) for GACCAAUCCGCCCUCAGAGCUCGAGAACAUCUUCGGAUGCAGAGGAGGAAGGCUUCGGUGGCGCGAUAGCGCCAACGUCCUCAAUCUCCAAUGCAUCCCACCACAUGAUGAUGCCUGAACAGCCUUGGUUUUUUG is 1.08

polymerase ribozyme fitness (log ratio) for GACCAAUCUGCCCUCAGAGCUCGAGAACAUCUUCGGAUGCAGAGGAGGCAGGCUUCGGUGGCGCGAUAGCGCCAACGUCCUCAACCUCCAUUGCAUCCCACCACAUGAUGAUGCCUGAAAAGCCUUGGUUUUUUG is -0.951

polymerase ribozyme fitness (log ratio) for GACCAAUCUGCCCUCAGAGCUCGAGAACAUCUUCUGAUGCAGAGGAGGCAGGCUUCGGUGGCGCGAUAGCGCCAACGUCCUCAACCUCCAAUGCAUCCCACCACAUGAUGAUGCCUGAAGGGCCUUGGUUUUUUG is -3.56

polymerase ribozyme fitness (log ratio) for GACCAAUCUGCCCUCAGAGCUCGAGAACAUCUUCGGAUGCAGAGGAGGCAGGCUUCGGUGGCGCGAUAGCGGCAACGUCCUCAACCUCCAAUGCAUCCCACCACAUGAUGAUGCCUGAAGAGCCUUGGUUUUGUG is 0.34

polymerase ribozyme fitness (log ratio) for GACCAAUCUGCCCUUAGAGCUCGAGAACUUCUUCGGAUGAAGAGGCGGCAGGCUUCGGUGGCGCGAUAGCGCCAACGUCCUCAACCUCCAAUGCAUCCCACCACAUGAUGAUGCCUGAAGAGACUUGGUUUUUUG is -5.62

polymerase ribozyme fitness (log ratio) for GAUCAAUCUGCCCUCAGAGCUCGAGAACAUCUUCGGAUGCAGAGGAGGCAGACUUCGGUGGUGCGAUAGCGCCAACGUCCUCAACCUCCAAUGCAUCCCACCACAUGAUGAUGCCUGAAGUGCCUUGGUUUUUUG is 1.52

polymerase ribozyme fitness (log ratio) for GACCAAUCUGCCCUCAGAGCUCGAGAACAUCUUCGGAUGCAGAGGCGGCAGGCUUCGGUGGCGCGAUAGCGACAACGUCCUCAACCUCCAAUGCAUCCCACCACAUGAUGACGCCUGAAGAGCUUUGGUUUUUUG is 1.22

polymerase ribozyme fitness (log ratio) for GACCAAUCUGCCCUCAGAGCUCGAGAACAUCUUCGGAUGCAGAGGAGGCAGACUUCGGUGGCGCGAUAGCGCCAACGACCUCAACCUCCAAUGCAUCCCACCACAUGAUGAUGCCUGAAGAGCCUUGGUUUUUUG is -0.123

polymerase ribozyme fitness (log ratio) for GACCAGUCUGCCCUCAGAGCUCGAGAACAUCUUCGGAUGCAGAGGAGGCAGGCUUCGGUGGCGCGAUAGCGACAACGUCCUCAACCUCCAAUGCAUCCCACCACAUGAUGAUGCCUGAAGAGCCUUGGUUUUUUG is 0.991
